Test system: NCI-H226 lung
Assay: NCI-60 one-dose screen, 48 h
Settings: 10 µM unless noted
The panel holds about 83,000 compounds, 20% with a hit somewhere; the sample as a whole holds those more often. Calls of active or inactive are those of the source. Rule for the calls: active = growth percent below 10; inactive = the rest.
Outcome codes: 1.0 for active, 0.0 for inactive

• O=C(Nc1cccc(F)c1)c1cc(=O)[nH]c2cc(Br)ccc12 = 0.0
• Cn1cc(-c2noc(-c3cn(C)c4ncc(F)cc34)n2)c2cc(Cl)ccc21 = 0.0
• O=C(NCc1ccccc1)C(Cl)Cl = 0.0
• COc1ncc(-c2ccc3nc(N)n(-c4ccccc4C(F)(F)F)c(=O)c3c2)cc1S(=O)(=O)Nc1ccc(F)cc1F = 0.0
• COc1ccc(OC)c(NC=O)c1 = 0.0
• O=C(NCCCCCCCNC(=O)OCc1ccc2c(Cl)cc(Cl)c(O)c2n1)OCc1ccc2c(Cl)cc(Cl)c(O)c2n1 = 1.0
• C#C[C@]1(O)CC[C@H]2[C@@H]3CC=C4c5nc(Nc6ccccc6[N+](=O)[O-])sc5CC[C@]4(C)[C@H]3CC[C@@]21C = 0.0
• C=C(C)[C@@H]1CC[C@]2(C(=O)NCCNCCNCCN)CC[C@]3(C)[C@H](CC[C@@H]4[C@@]5(C)CC[C@H](O)C(C)(C)[C@@H]5CC[C@]43C)[C@@H]12 = 1.0
• Cc1ccc(S(=O)(=O)Nc2ccccc2)cc1N = 0.0
• CSc1nc(=S)c2nc(SC)n(-c3ccccc3)c2[nH]1 = 0.0
• CC1(C)C(=O)/C(=C\c2cccnc2)C[C@]2(C)[C@H]3CC[C@@H]4[C@H]5[C@H](C(=O)/C=C/c6cccnc6)CC[C@]5(C(=O)O)CC[C@@]4(C)[C@]3(C)CC[C@@H]12 = 1.0
• O=c1[nH]c(CN2CCN(c3cccc(Cl)c3)CC2)nc2cc(Cl)ccc12 = 0.0
• Cc1cc(C)nc(SCC(=O)Nc2cccc(N=Cc3ccccc3O)c2)n1 = 0.0
• O=C1/C(=C/c2ccc(OCc3ccccc3)cc2)Oc2cc(OCCN3CCCCC3)ccc21 = 0.0
• C=C(C)[C@@H]1CC[C@]2(C(=O)NCCNCCNC(=O)OC(C)(C)C)CC[C@]3(C)[C@H](CC[C@@H]4[C@@]5(C)CCC(=O)C(C)(C)[C@@H]5CC[C@]43C)[C@@H]12 = 0.0
• COc1cc(-c2cc(-c3ccc(Nc4ncnc5cc(Cl)ccc45)cc3)nc(N3CCCCC3)n2)cc(OC)c1OC = 0.0
• C=C1C(=O)O[C@H]2[C@H]1CC/C(COC(=O)NCc1ccc(Cn3c(=O)sn(-c4ccc(Cl)cc4)c3=O)cc1)=C\CC[C@@]1(C)O[C@@H]21 = 0.0
• Cc1cccc([N+](=O)[O-])c1I = 0.0

----------
System: HCT-116 colon
Test: NCI-60 one-dose screen, 48 h (100 = growth as untreated, 0 = no growth, -100 = all killed)
Conditions: 10 µM unless noted
This is part of a sample that, as a whole, favours compounds with a hit. Of some 83,000 tested, about 20% had one in any assay.
readout name: growth (%)

- CCOC(=O)C1=C(C(=O)c2ccc(Br)cc2)C(c2ccc(Br)cc2)NC(=S)N1 (stereo not given): 89.8
- CCOc1ccc(/C=C(\C#N)c2cc3ccccc3[nH]2)cc1: 37.1
- CSc1cccc([N+](=O)[O-])c1: 100
- C#C[C@]1(O)CC[C@H]2[C@@H]3CC=C4c5nc(N)sc5CC[C@]4(C)[C@H]3CC[C@@]21C: 33.8
- O=C(NCc1ccccc1)C(Cl)Cl: 108
- Cc1nn(-c2ccccc2)c(N2CCOCC2)c1-c1nc2ccc([N+](=O)[O-])cc2[nH]1: 97.8
- CCN(CC)c1ccc(/C=C/c2ccc3cc(C)ccc3[n+]2CC)cc1: 7.53
- O=C(N/N=C/c1c(Cl)cccc1Cl)c1cccc(Nc2ccnc(C(F)(F)F)c2)c1: 77.2
- O=C1/C(=C/c2cccc(OCc3ccccc3)c2)Oc2cc(OCCN3CCCCC3)ccc21: 52.8
- CO[C@H]1CC[C@@]2(C)C(=CC[C@H]3[C@@H]4C[C@H](O)C[C@@]4(C)CC[C@@H]32)C1: 29.2
